# Tested on: K562
# test.details: cells
# Format: functional, cell-based
# applied.conditions: Homo sapiens
# Description: Cytotoxic property against K562 cell line was determined
pIC50: −log10 of the molar value.
Threshold rule: pIC50 greater than or equal to 4 is condition met; below that, condition not met.

Request: Reported pIC50 reaches at least 4 for CCCOc1nc2c(NCc3ccccc3)nc(NC(CC)CO)nc2n1C(C)C (stereo not given) ?
Response: condition met

* * *

Answer each item with its documented pIC50.
# Tested on: K562
# test.details: cells
# Type: functional, cell-based
# applied.conditions: Homo sapiens
Give bare numbers, as −log10 of the molar value.

Known pIC50 results, listed for orientation:
- CCC(CO)Nc1nc(NCc2ccccc2)c2nc(C)n(C(C)C)c2n1 (stereo not given): 4.24
- CCC(CO)Nc1nc(NCc2ccccc2)c2nc(Cl)n(C(C)C)c2n1 (stereo not given): 4.04
- CCC(CO)Nc1nc(NCc2ccccc2)c2nc(Br)n(C(C)C)c2n1 (stereo not given): 4.57
- CCC(CO)Nc1nc(NCc2ccccc2)c2nc([N+](=O)[O-])n(C(C)C)c2n1 (stereo not given): 3.93

Attention now turns to another entry.
Request: Checklist item: pIC50 tested on K562, entry CCC(CO)Nc1nc(NCc2ccccc2)c2nc(NCCCO)n(C(C)C)c2n1 (stereo not given) , value?
Response: 4.52

* * *

# Tested on: MCF7
# test.details: cells
# Type: functional, cell-based
# applied.conditions: Homo sapiens
# Description: Cytotoxic property against MCF-7 cell line was determined
So basically: is IC50 under 40 µM? Then Condition met. Not under? Then Condition not met.

Examples from the recorded data:
* CC(C)n1cnc2c(Nc3cccc(Cl)c3)nc(NC3CCC(N)CC3)nc21 (configuration not stated) | Condition met
* CC(C)C(CO)Nc1nc(Nc2cccc(Cl)c2)c2nc(Cl)n(C(C)C)c2n1 (configuration not stated) | Condition not met
* CCC(CO)Nc1nc(NCc2cccc(O)c2)c2nc(Cl)n(C(C)C)c2n1 (configuration not stated) | Condition met
* CCC(CO)Nc1nc(NCc2ccccc2)c2nc(C)n(C(C)C)c2n1 (configuration not stated) | Condition not met
* CCC(CO)Nc1nc(NCc2ccccc2)c2nc([N+](=O)[O-])n(C(C)C)c2n1 (configuration not stated) | Condition not met
* Cc1nc2c(Nc3cccc(Cl)c3)nc(NC3CCC(N)CC3)nc2n1C(C)C (configuration not stated) | Condition met
* CCC(CO)Nc1nc(NCc2ccccc2)c2nc(Cl)n(C(C)C)c2n1 (configuration not stated) | Condition not met
* CCC(CO)Nc1nc(NCc2ccccc2)c2nc(Br)n(C(C)C)c2n1 (configuration not stated) | Condition not met
* CCCOc1nc2c(NCc3ccccc3)nc(NC(CC)CO)nc2n1C(C)C (configuration not stated) | Condition not met
* CCC(CO)Nc1nc(NCc2ccccc2)c2nc(S)n(C(C)C)c2n1 (configuration not stated) | Condition not met

Request: Decide: IC50 of CCC(CO)Nc1nc(NCc2ccccc2)c2nc(N)n(C(C)C)c2n1 (configuration not stated) strictly below 40 µM?
Response: Condition not met

* * *

# System: K562
# test.details: cells
# Type: functional, cell-based
# applied.conditions: Homo sapiens
endpoint.label: pIC50
Give bare numbers, as −log10 of the molar value.

Known pIC50 results, listed for orientation:
* Cc1nc2c(Nc3cccc(Cl)c3)nc(NC3CCC(N)CC3)nc2n1C(C)C (centres undefined) | 5.46
* CC(C)C(CO)Nc1nc(Nc2cccc(Cl)c2)c2nc(Cl)n(C(C)C)c2n1 (centres undefined) | 4.68
* CCC(CO)Nc1nc(NCc2ccccc2)c2nc(S)n(C(C)C)c2n1 (centres undefined) | 3.81

Attention now turns to another entry.
Request: Bench note: what pIC50 did CCC(CO)Nc1nc(NCc2ccccc2)c2nc(N)n(C(C)C)c2n1 (centres undefined) show?
Response: 4.10
